Each recorded value in this set is attributed to patent US10918713B2.

Test system: PBMC from allergic donors
Experiment: Dual ELISPOT, total IL-5 and IFN-γ response (SFC)
Type: cell-based, human
Conditions: sum of IFNg and IL-5; one donor per table line
Procedure: Spots were counted by computer-assisted image analysis (Zeiss, KS-ELISPOT reader, Munich, Germany). Each assay was performed in triplicate. The level of statistical significance was determined with a Student's t-test using the mean of triplicate values of the response against relevant pools or individual peptides versus the response against the DMSO control.
Doc: threshold 300 SFC/10^6 (exclusive). Items with Response (SFC/10^6) Total beneath it return TRUE; others return FALSE.

Examples from the recorded data:
substance	category.label
3324.1043 (SNVANLRNWIISNTV)	TRUE
3324.0835 (QTHSAIAVIIGIKDL)	FALSE
3324.0834 (KAFNKSYATFEDEEA)	FALSE
3324.0842 (GGAINHLSDLSLDEF)	FALSE
3324.0605 (HFFNHHKVMLLGHDD)	FALSE
3324.0989 (SIYSRLHNLNKEFFP)	TRUE
3324.0380 (VILAINHSVFVKGDH)	FALSE
3324.0621 (MRKVSHVILHGLHIH)	FALSE

Prompt: hey, is Response (SFC/10^6) Total for 3324.0836 (EIDLRQMRTVTPIRM) lower than 300 SFC/10^6 or not?
Completion: FALSE

Prompt: hey, is Response (SFC/10^6) Total for 3324.0988 (RIYVDIVLNHMTGAQ) lower than 300 SFC/10^6 or not?
Completion: TRUE

Prompt: hey, is Response (SFC/10^6) Total for 3324.0525 (DKSMKVTVAFNQFGP) lower than 300 SFC/10^6 or not?
Completion: FALSE

Prompt: hey, is Response (SFC/10^6) Total for 3324.0922 (TGLPLMYKFGDNLVV) lower than 300 SFC/10^6 or not?
Completion: TRUE

Prompt: hey, is Response (SFC/10^6) Total for 3324.0355 (DGSVWAQSSSFPQFK) lower than 300 SFC/10^6 or not?
Completion: FALSE
